Data provenance is patent US20210380703A1.

# targetOrSystem: T1, human ACVR2A (human, UniProt P27037 20-135, limits assumed); also: test concentration or dose not given here
# T1 construct: also called activin receptor, type II A
# T1 sequence (P27037 20-135 limits assumed): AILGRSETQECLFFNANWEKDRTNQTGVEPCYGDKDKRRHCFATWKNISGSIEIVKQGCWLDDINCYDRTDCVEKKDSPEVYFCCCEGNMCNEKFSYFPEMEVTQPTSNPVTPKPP
# testSummary: ELISA
assayMetric: optical density (OD)
Return type: number; implicit unit OD.

1) 367_A03 (antibody, V domains shown, Group III) VH: EVQLLESGGGLVQPGGSLRLSCAASGFTFDSYGMNWVRQAPGKGLEWVAGINYNGGYTSYADSVKGRFTISRDNSKNTLYLQMNSLRAEDTAVYYCARGANWHDTALDYWGQGTLVTVSS VL: DIQMTQSPSSLSASVGDRVTITCRASQSILTYVNWYQQKPGKAPKLLIYATTSRHSGVPSRFSGSGSGTDFTLTISSLQPEDFATYYCQQSYDSPLTFGGGTKVEIK; 2.58
2) 371_G07 (antibody, V domains shown, Group II) VH: EVQLLESGGGLVQPGGSLRLSCAASGFTFSDYGMHWVRQAPGKGLEWVAGINYNGGYTSYADSVKGRFTISRDNSKNTLYLQMNSLRAEDTAVYYCARAATWHDTHLDYWGQGTLVTVSS VL: DIQMTQSPSSLSASVGDRVTITCRASQSIVSYVNWYQQKPGKAPKLVIYAATSRASGVPSRFSGSGSGTDFTLTISSLQPEDFATYYCQQSYSLPLTFGGGTKVEIK; 2.8
3) 367_C09 (antibody, V domains shown, Group I) VH: EVQLLESGGGLVQPGGSLRLSCAASGFTFDSYGMHWVRQAPGKGLEWVASINYNGGYTSYADSVKGRFTISRDNSKNTLYLQMNSLRAEDTAVYYCARAANWHDTHLDYWGQGTLVTVSS VL: DIQMTQSPSSLSASVGDRVTITCRASQSILSYVNWYQQKPGKAPKLVIYAATSRHSGVPSRFSGSGSGTDFTLTISSLQPEDFATYYCQQSYNTPLTFGGGTKVEIK; 2.41

Data request: Tell me optical density reported for 366_D01 (antibody, V domains shown, Group I) VH: EVQLLESGGGLVQPGGSLRLSCAASGFTFSSYGMHWVRQAPGKGLEWVSSINYNGGYTGYADSVKGRFTISRDNSKNTLYLQMNSLRAEDTAVYYCARAANWHDTHLDYWGQGTLVTVSS VL: DIQMTQSPSSLSASVGDRVTITCRASQSILTYVNWYQQKPGKAPKLLIYAATSRASGVPSRFSGSGSGTDFTLTISSLQPEDFATYYCQQSYENPLTFGGGTKVEIK
Data returned: 2.36

Data request: Tell me optical density reported for 368_A06 (antibody, V domains shown, Group I) VH: EVQLLESGGGLVQPGGSLRLSCAASGFTFDSYSMHWVRQAPGKGLEWVAGINYNSGYKGYADSVKGRFTISRDNSKNTLYLQMNSLRAEDTAVYYCARAANWHDTHLDYWGQGTLVTVSS VL: DIQMTQSPSSLSASVGDRVTITCRASQSILSYVNWYQQKPGKAPKLLIYAATSRHSGVPSRFSGSGSGTDFTLTISSLQPEDFATYYCQQSYNSPLTFGGGTKVEIK
Data returned: 2.25

Data request: Tell me optical density reported for 366_E07 (antibody, V domains shown, Group II) VH: EVQLLESGGGLVQPGGSLRLSCAASGFTFDSYGMHWVRQAPGKGLEWVAGINYNGGYTSYADSVKGRFTISRDNSKNTLYLQMNSLRAEDTAVYYCARAATWHDTALDYWGQGTLVTVSS VL: DIQMTQSPSSLSASVGDRVTITCRASQSILTYLNWYQQKPGKAPKLVIYAATSRHSGVPSRFSGSGSGTDFTLTISSLQPEDFATYYCQQSDNSPLTFGGGTKVEIK
Data returned: 1.68

Data request: Tell me optical density reported for 368_E05 (antibody, V domains shown, Group II) VH: EVQLLESGGGLVQPGGSLRLSCAASGFTFDSYSMHWVRQAPGKGLEWVSSINYNGGYKSYADSVKGRFTISRDNSKNTLYLQMNSLRAEDTAVYYCARAATWHDTHLDYWGQGTLVTVSS VL: DIQMTQSPSSLSASVGDRVTITCRASQSILSYLNWYQQKPGKAPKLVIYAATSRASGVPSRFSGSGSGTDFTLTISSLQPEDFATYYCQQSYSSPLTFGGGTKVEIK
Data returned: 1.87

Data request: Tell me optical density reported for 366_A04 (antibody, V domains shown, Group I) VH: EVQLLESGGGLVQPGGSLRLSCAASGFTFSSYGMNWVRQAPGKGLEWVAGINYNGGYTSYADSVKGRFTISRDNSKNTLYLQMNSLRAEDTAVYYCARAANWHDTALDYWGQGTLVTVSS VL: DIQMTQSPSSLSASVGDRVTITCRASQSILTYLNWYQQKPGKAPKLVIYAATSLASGVPSRFSGSGSGTDFTLTISSLQPEDFATYYCQQSDDSPLTFGGGTKVEIK
Data returned: 1.82

Data request: Tell me optical density reported for 373_G06 (antibody, V domains shown, Group II) VH: EVQLLESGGGLVQPGGSLRLSCAASGFTFSSYGMHWVRQAPGKGLEWVASINYNSGYTGYADSVKGRFTISRDNSKNTLYLQMNSLRAEDTAVYYCARAATWHDTHLDYWGQGTLVTVSS VL: DIQMTQSPSSLSASVGDRVTITCRASQSILSYVNWYQQKPGKAPKLLIYAATSLASGVPSRFSGSGSGTDFTLTISSLQPEDFATYYCQQSYNLPLTFGGGTKVEIK
Data returned: 3.4

Data request: Tell me optical density reported for 370_H05 (antibody, V domains shown, Group II) VH: EVQLLESGGGLVQPGGSLRLSCAASGFTFSSYGMHWVRQAPGKGLEWVSNINYNGGYTSYADSVKGRFTISRDNSKNTLYLQMNSLRAEDTAVYYCARAATWHDTHLDYWGQGTLVTVSS VL: DIQMTQSPSSLSASVGDRVTITCRASQSILSYLNWYQQKPGKAPKLLIYAASSLQSGVPSRFSGSGSGTDFTLTISSLQPEDFATYYCQQSDSLPLTFGGGTKVEIK
Data returned: 2.94
